Assay: kinase inhibitors against Plasmodium liver-stage infection, cell-based, known kinase inhibitor set, luminescence, hepatoma host viability (AID 624392);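 further: infected cells incubated roughly two days before readout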
Conditions: Plasmodium liver stage in hepatoma cells, luciferase luminescence, concentration not given here; hits give low values
Value Kind: parasite % of control (%)
Numeric only. Scale: %

Examples with answers:
Molecule | Measured Result
Cn1cc(C2=C(Nc3ccccc3)C(=O)NC2=O)c2ccccc21 | 67.5
Cn1c(=O)c(Oc2ccc(F)cc2F)cc2cnc(NC3CCC(O)CC3)nc21 (stereo not given) | 60.3
CN(C)c1cc2c(Nc3ccc4c(cnn4Cc4ccccc4)c3)ncnc2cn1 | 78.7

parasite % of control recorded for this molecule, `Cc1nn(C)c2cc(N(C)c3ccnc(Nc4cccc(S(N)(=O)=O)c4)n3)ccc12` , is 67

Kindly note the recorded parasite % of control for `COc1cc(Nc2nccc(Nc3ccc4c(C)[nH]nc4c3)n2)cc(OC)c1OC` , which is 247

Entry `COc1cc2c(cc1Nc1nc(Nc3ccsc3C(N)=O)c3cc[nH]c3n1)N(C(=O)CN(C)C)CCC2(C)C` ; parasite % of control = 290

Record `CS(=O)(=O)CCNCc1cc(-c2cc3c(Nc4ccc(OCc5cccc(F)c5)c(Cl)c4)ncnc3s2)cs1` , field parasite % of control: 132
